The entries below are paired with their reported Ratio Ki.
- Species: Homo sapiens
- Assay notes: Selectivity ratio of Ki for human recombinant CB1 receptor to Ki for human recombinant CB2 receptor
Output spec: single numeric token, no unit.

Guide cases for Ratio Ki, answers given:
Q: Looking for the measured Ratio Ki of O=C(c1cn(CC2CCOCC2)c2ccccc12)C12CC3CC(CC1C3)C2 , can you help?
A: 35

Q: Looking for the measured Ratio Ki of CC[C@H]1CC[C@H](C(=O)c2cn(CCN3CCOCC3)c3ccccc23)CC1 , can you help?
A: 39

Q: Looking for the measured Ratio Ki of COC(=O)CCn1cc(C(=O)C2C(C)(C)C2(C)C)c2ccccc21 , can you help?
A: 631

Next item in the queue.
Q: Looking for the measured Ratio Ki of CC1(C)C(C(=O)c2cn(CCn3cccc3)c3ccccc23)C1(C)C , can you help?
A: 172

----------
- Organism: Homo sapiens
- Assay notes: Selectivity ratio of Ki for human recombinant CB1 receptor to Ki for human recombinant CB2 receptor
Endpoint: Ratio Ki
Output spec: single numeric token, no unit.

Guide cases for Ratio Ki, answers given:
Q: Looking for the measured Ratio Ki of CC1(C)C(C(=O)c2cn(CCN3CCCCC3)c3ccccc23)C1(C)C , can you help?
A: 242

Q: Looking for the measured Ratio Ki of CC1(C)C(C(=O)c2cn(CC3CCOC3)c3ccccc23)C1(C)C (stereo unspecified) , can you help?
A: 4500

Q: Looking for the measured Ratio Ki of CC1(C)C(C(=O)c2cn(C[C@H]3CCCO3)c3ccccc23)C1(C)C , can you help?
A: 189

Q: Looking for the measured Ratio Ki of CC1(C)C(C(=O)c2cn(Cc3ccccc3)c3ccccc23)C1(C)C , can you help?
A: 26

Q: Looking for the measured Ratio Ki of CC1(C)C(C(=O)c2cn(CCc3ccsc3)c3ccccc23)C1(C)C , can you help?
A: 82

Next:
Q: Looking for the measured Ratio Ki of CC1(C)C(C(=O)c2cn(CCc3nsc(Cl)n3)c3ccccc23)C1(C)C , can you help?
A: 506

Q: Looking for the measured Ratio Ki of CC(=O)CCCCn1cc(C(=O)C2C(C)(C)C2(C)C)c2ccccc21 , can you help?
A: 384

Q: Looking for the measured Ratio Ki of CC1(C)C(C(=O)c2cn(CCCO)c3ccccc23)C1(C)C , can you help?
A: 1050

Q: Looking for the measured Ratio Ki of COCCCn1cc(C(=O)C2C(C)(C)C2(C)C)c2ccccc21 , can you help?
A: 508

----------
The entries below are paired with their reported pKi.
- System name: Cannabinoid receptor 2 (Homo sapiens, UniProt P34972)
- Sequence (P34972 whole entry): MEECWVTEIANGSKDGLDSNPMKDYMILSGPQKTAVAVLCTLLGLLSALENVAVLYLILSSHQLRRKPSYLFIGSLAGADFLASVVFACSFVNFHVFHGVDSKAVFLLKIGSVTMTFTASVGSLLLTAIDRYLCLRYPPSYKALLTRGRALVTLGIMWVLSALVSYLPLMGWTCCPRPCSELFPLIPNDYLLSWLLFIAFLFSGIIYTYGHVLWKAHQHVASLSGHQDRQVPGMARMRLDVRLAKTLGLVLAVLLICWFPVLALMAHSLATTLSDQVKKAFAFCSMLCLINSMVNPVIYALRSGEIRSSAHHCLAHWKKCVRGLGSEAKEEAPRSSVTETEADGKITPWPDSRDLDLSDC
- Assay notes: Displacement of [3H]CP-55940 from human recombinant CB2 receptor expressed in HEK293 cells
- Type: cell-based
- Condition summary: read-out: Ki
Worth noting: pKi values are minus log10 of concentrations stated in mol/L.

Q: Recorded pKi for CC1(C)C(C(=O)c2cn(CCc3ccncc3)c3ccccc23)C1(C)C with Cannabinoid receptor 2 (Homo sapiens, UniProt P34972), please?
A: 7.51

Q: Recorded pKi for O=C(c1cn(CCN2CCOCC2)c2ccccc12)C12CC3CC(CC1C3)C2 with Cannabinoid receptor 2 (Homo sapiens, UniProt P34972), please?
A: 7.64

Q: Recorded pKi for O=C(c1cn(CCN2CCOCC2)c2ccccc12)[C@@H]1CC12CCCCC2 with Cannabinoid receptor 2 (Homo sapiens, UniProt P34972), please?
A: 7.46

Next:
Q: Recorded pKi for CCCCn1cc(C(=O)C2C(C)(C)C2(C)C)c2ccccc21 with Cannabinoid receptor 2 (Homo sapiens, UniProt P34972), please?
A: 8.70

----------
- System name: Cannabinoid receptor 2 (Homo sapiens, UniProt P34972)
- Assay notes: Displacement of [3H]CP-55940 from human recombinant CB2 receptor expressed in HEK293 cells
- Type: cell-based
- Condition summary: read-out: Ki
Endpoint: Ki (nM)
Field format: number, assumed nM, no unit text.

Guide cases for Ki, answers given:
Q: Recorded Ki for O=C(c1cn(CC2CCOCC2)c2ccccc12)C12CC3CC(CC(C3)O1)C2 with Cannabinoid receptor 2 (Homo sapiens, UniProt P34972), please?
A: 5.9

Q: Recorded Ki for CN(C)CCn1cc(C(=O)C2C(C)(C)C2(C)C)c2ccccc21 with Cannabinoid receptor 2 (Homo sapiens, UniProt P34972), please?
A: 1.9

Q: Recorded Ki for CC1(C)C(C(=O)c2cn(Cc3ccncc3)c3ccccc23)C1(C)C with Cannabinoid receptor 2 (Homo sapiens, UniProt P34972), please?
A: 3.7

Q: Recorded Ki for CSCCCCn1cc(C(=O)C2C(C)(C)C2(C)C)c2ccccc21 with Cannabinoid receptor 2 (Homo sapiens, UniProt P34972), please?
A: 0.4

Q: Recorded Ki for CC1(C)C(C(=O)c2cn(CCc3ccsc3)c3ccccc23)C1(C)C with Cannabinoid receptor 2 (Homo sapiens, UniProt P34972), please?
A: 1.8

Next:
Q: Recorded Ki for CC(=O)CCCCn1cc(C(=O)C2C(C)(C)C2(C)C)c2ccccc21 with Cannabinoid receptor 2 (Homo sapiens, UniProt P34972), please?
A: 0.99

Q: Recorded Ki for CN1CCCCC1Cn1cc(C(=O)C2C(C)(C)C2(C)C)c2ccccc21 (configuration not stated) with Cannabinoid receptor 2 (Homo sapiens, UniProt P34972), please?
A: 0.48

Q: Recorded Ki for CC1(C)C(C(=O)c2cn(CC3CCOC3)c3ccccc23)C1(C)C (configuration not stated) with Cannabinoid receptor 2 (Homo sapiens, UniProt P34972), please?
A: 0.14

Q: Recorded Ki for CC1(C)C(C(=O)c2cn(CCN3CCOC3=O)c3ccccc23)C1(C)C with Cannabinoid receptor 2 (Homo sapiens, UniProt P34972), please?
A: 0.18

Q: Recorded Ki for COCCn1cc(C(=O)C2C(C)(C)C2(C)C)c2ccccc21 with Cannabinoid receptor 2 (Homo sapiens, UniProt P34972), please?
A: 3.1

----------
- System name: Cannabinoid receptor 2 (Homo sapiens, UniProt P34972)
- Assay notes: Displacement of [3H]CP-55940 from human recombinant CB2 receptor expressed in HEK293 cells
- Type: cell-based
- Condition summary: hek293
Endpoint: pKi

Q: Looking for the measured pKi of CN1CCCCC1Cn1cc(C(=O)c2cc([N+](=O)[O-])ccc2I)c2ccccc21 (stereo unspecified) , can you help?
A: 7.94

Next:
Q: Looking for the measured pKi of CN1CCCC1CCn1cc(C(=O)C2C(C)(C)C2(C)C)c2ccccc21 (stereo unspecified) , can you help?
A: < 6

Q: Looking for the measured pKi of CC1(C)C(C(=O)c2cn(CCC(=O)O)c3ccccc23)C1(C)C , can you help?
A: < 6

Q: Looking for the measured pKi of CC1(C)C(C(=O)c2cn(C(=O)CC3CCOCC3)c3ccccc23)C1(C)C , can you help?
A: < 6

Q: Looking for the measured pKi of CC1(C)C(C(=O)c2cn(CCCN3CCOCC3)c3ccccc23)C1(C)C , can you help?
A: < 6

Q: Looking for the measured pKi of CC1(C)C(C(=O)c2cn(CCN)c3ccccc23)C1(C)C , can you help?
A: < 6

----------
The entries below are paired with their reported EC50.
- System name: Cannabinoid receptor 2 (Rattus norvegicus, UniProt Q9QZN9)
- Sequence (Q9QZN9 whole entry): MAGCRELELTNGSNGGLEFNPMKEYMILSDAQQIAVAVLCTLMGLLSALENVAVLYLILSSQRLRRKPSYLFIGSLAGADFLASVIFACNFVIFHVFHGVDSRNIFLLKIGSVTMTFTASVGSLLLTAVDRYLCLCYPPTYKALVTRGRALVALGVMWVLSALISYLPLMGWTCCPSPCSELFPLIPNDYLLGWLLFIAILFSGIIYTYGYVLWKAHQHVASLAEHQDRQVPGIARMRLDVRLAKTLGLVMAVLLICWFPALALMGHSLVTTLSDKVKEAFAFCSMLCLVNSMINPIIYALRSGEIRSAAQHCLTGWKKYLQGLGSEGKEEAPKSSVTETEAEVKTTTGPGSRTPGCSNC
- Assay notes: Agonist activity at rat CB2 receptor assessed as inhibition of forskolin-induced cAMP production by cell based assay
Include the unit after the number when you answer.

Guide cases for EC50, answers given:
Q: Looking for the measured EC50 of CC1(C)C(C(=O)c2cn(CC3CCOCC3)c3ccccc23)C1(C)C , can you help?
A: 0.17 nM

Q: Looking for the measured EC50 of CC1(C)C(C(=O)c2cn(CCCCO)c3ccccc23)C1(C)C , can you help?
A: 4.4 nM

Q: Looking for the measured EC50 of CC1(C)C(C(=O)c2cn(CCN3CCOC3=O)c3ccccc23)C1(C)C , can you help?
A: 0.07 nM

Next item in the queue.
Q: Looking for the measured EC50 of CC1(C)C(C(=O)c2cn(CCN3CCOCC3)c3ccccc23)C1(C)C , can you help?
A: 1.6 nM

----------
- System name: Cannabinoid receptor 2 (Homo sapiens, UniProt P34972)
- Assay notes: Agonist activity at human recombinant CB2 receptor expressed in HEK293 cells coexpressing Galphaq/o5 assessed as calcium mobilization by FLIPR assay relative to CP-55940
- Type: functional, cell-based
Endpoint: Activity (%)
Field format: number, assumed %, no unit text.

Q: Looking for the measured Activity of O=C(c1cn(CC2CCOCC2)c2ccccc12)[C@@H]1CC12CCCCC2 , can you help?
A: 86

Next:
Q: Looking for the measured Activity of CC1(C)C(C(=O)c2cn(Cc3ccccc3)c3ccccc23)C1(C)C , can you help?
A: 59

Q: Looking for the measured Activity of CCCCCn1cc(C(=O)C2C(C)(C)C2(C)C)c2ccccc21 , can you help?
A: 93

Q: Looking for the measured Activity of O=C(c1cn(CC2CCOCC2)c2ccccc12)C1CCCC1 , can you help?
A: 64

Q: Looking for the measured Activity of O=C(c1cn(CC2CCOCC2)c2ccccc12)C12CC3CC(CC1C3)C2 , can you help?
A: 93

Q: Looking for the measured Activity of CC1(C)C(C(=O)c2cn(CCN3C(=O)CCC3=O)c3ccccc23)C1(C)C , can you help?
A: 34

Q: Looking for the measured Activity of Cc1ncsc1CCn1cc(C(=O)C2C(C)(C)C2(C)C)c2ccccc21 , can you help?
A: 49

Q: Looking for the measured Activity of COCCn1cc(C(=O)C2C(C)(C)C2(C)C)c2ccccc21 , can you help?
A: 117
